Tested on: Five-mutation enzyme (five-mutation D-type amino acid dehydrogenase, SEQ ID NO: 14)
ASSAY_PROCEDURE: D-amino acid synthesis activity (amination of 2-oxo acid), five-mutation enzyme
Format: biochemical, Thermosyntropha lipolytica
RUN_CONDITIONS: NADH 0.1 mM, 5 mM 2-oxoacid, 200 mM ammonium chloride, glycine buffer pH 9.5, 50° C.
REPORTED_METRIC: D-amino acid synthesis activity (specific activity), Five-mutation enzyme, NADH

INPUT_SMILES	RECORDED_VALUE
O=C(O)C(=O)Cc1ccccc1	No Activity
O=C(O)CCC(=O)C(=O)O	No Activity
CSCCC(=O)C(=O)O	No Activity

All figures here come from patent US11098288B2.
